System: MS2 coat protein
Assay: apparent KD of MS2 coat protein; designed switch direction (-1 OFF switch, 1 ON switch): -1; higher = weaker reporter binding
Conditions: Eterna round: R95; input ligand: none
PROPERTY_MEASURED: apparent KD of MS2 coat protein (nM)
Respond numerically; units are nM and should not be typed.

Query :: # query: apparent KD of MS2 coat protein of entry CCGCAAAUGCAGGAUAUCGUAUCGGAUACGAUACGAGAAGGGUAUACAUGAGGAUCACCCAUGUGUCCUAGCGG [Fiskers Ex 6 - 45] (puzzle: Exclusion 6)
Result :: 21.5

Query :: Now give it for AGUACUAACACGAAAGUGUUAGUACUAUAAGCUUGUGUUACAUGAGGAUCACCCAUGUCCUCAUAAGCUCGUCUUAU [JL-sv3-2.15 mat747 mod] (puzzle: Sensor v3, turn-off variant 2) too.
Result :: 115

Query :: Same question, UAUAACAAGCCAGAUCCUAACAUGAGGAUCACCCAUGUGCUCGUCUGAUUUUGUACUAUCAUGAGAGUGAUAGUACU [Level Boss var2-03] (puzzle: Sensor v3, turn-off variant 1) this time
Result :: 192

Query :: Try this sequence too: GUGGUGGGUUUUCCGAGUAACAUGAGGAUCACCCAUGUAUUAGUUUGAUGUAUCAAGCGAAUGGCUCGUCUUAUAUA [JR_SV3TOV1_Sub045] (puzzle: Sensor v3, turn-off variant 1)
Result :: 107

Query :: Repeat for the following sequence: GGUCAAGGACAGCUCCGCGCUGCCCUUGACCGCUCAUUUACAUGAGGAUCACCCAUGUUUUUUGCUUGUCUUGUUUC [Atedorgela] (puzzle: Sensor v3, turn-off variant 2)
Result :: 24.2

---

Tested on: K4 kissing-loop RNA reporter;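 also: bound reporter read as fluorescence of individual clusters on recovered sequencing chips by microscopy, with normalized cluster intensities fitted with a binding model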
Assay: apparent KD of K4 kissing-loop reporter; higher = weaker reporter binding
Details: Eterna round: R107; input ligand: arginine 13.2 mM
Kindly supply the reported apparent KD of K4 kissing-loop reporter values for the records listed here.
Write the answer as a number in nM, unit excluded.

Query :: Data request, read-out apparent KD of K4 kissing-loop reporter, for AGUGAUGUGGGAAGGAGCGGUAUAUGAGUUCAGUGAUGUUGAAGUGAUGCUGUAGUGAUGUGCCAGGUAGGUCGCCUAGAUGUUA [whbob_Ex_Arginine_B_2th165]
Result :: 217

Query :: Follow-up entry: UAAUAAAUUCUGGCAAUGUCACUCUUCGAAGGAGCGGACGAAAGUCCAGGUAGGUCGCGAAGAGUGAUGUUCUUCGCGGCGCCAG [Omei KL Arginine A Exc A v1]
Result :: 235

Query :: Item: AAGCAGUCGCUCGAAGCCAUCGAAGAUGGGCGAGGACCGGUACGGCCGCCACUCGGAGUGAUGUUCCGAGGACUGCAAAAUAAAA [MatMod 5 - Jieux - Exclusion - Tryptophan A]
Result :: 246

Query :: Please give the result for UUGCUUCUACUAGGAUAUCAUCAGUCAUGUUCAAUGACACUCGAGUGAUGUUCGAUAGAAGCGAGAUGAGAAGGAGUACAAGCAG [FMB B SS t3] too.
Result :: 48.8

Query :: Now the sequence GCGCAUGUUAAAGGAUAUAGCAGGUGAUACAAGAAAGUGAGUGAUGUUUAUGUAGAUGAUGAUAUGUUAGAAGGUUAACAAGCGC [abcdefghijklmnop]
Result :: 639

Query :: Consider next the sequence AAACAUCACUGGGAGUGAUGUUCUCAGUGACGAGGACCGGUACGGCCGCCACUCGCGAGAGAUAUAGAUGAGUAAUGACAUCAUU [Excl Tryptophan A V3] in the same way.
Result :: 232

Query :: Same lookup for GGUAGCAUGGCGGCCGCCACUUGCACUCGUCUUGCAUAUUGGCCUAUGAUAGUAGUGAUGUUACUAAGGACCGGGCCAUGCUACC , please.
Result :: 173

Query :: Then UUGGCUGGACGGGAUACCAGCCAAAUCGUGUGCUUAGGAUGUCUAAGAGCCAGUGAUGUUGGCCCUUGGCAGCCCUCCUAGCUUG [Ordigear] ?
Result :: 115

Query :: What do we get for UGUACCGAGUCAGGAUAUACCGUCGAAAGACGAAAUGGAGUGAUGUUCCUUAAACUGCGAAAGCAGGUAGAAGGGACUUGGUACU [FmnBS 30 #SwitchBubble #StaticStem #DoubleMagnetSystem] ?
Result :: 263

Query :: Now this one: AGUCUGUAUGACAUAAGUGAUGUUUAUGUUCGAGGACCGGUACGGCCGCCACUCGCAAAUGUAUGAUUUCACGUUUGUGCAAGUA [KL-XTryp-A #analogue]
Result :: 183

Query :: Quick one: AAAUGUUUGUAUUUGAACAAUUUCCUUAGAGAGGAUAUUGGUAAUACAAGAAGGCUCUGAUGGGAGUGAUGUUCCCAUAACGCGG [Exclusion FMN A GF14]
Result :: 114

Query :: What do you get for UGUUUUUACUGAAGGAGCGGCAAUUGAUACGUAGAUAUAGUGAUGUUAUAUAAGAUAGAGAGCCAGGUAGGUCGCAGAUUUUUUC [ExArgB.Y] ?
Result :: 201

Origin of the recorded values: the supplement of paper PMC9170038
